Would you kindly list GI50 for each of these compounds?
System: Ba/F3 KIF5B-RET (V804M) cells
Assay method text: Cell proliferation inhibition, CellTiter-Glo
Assay type: cell-based
Condition label: Mus musculus, BaF3, 72 hours
One number for each entry, in nM.

Hello, I would appreciate it if you could give GI50 for each entry below.
1. COc1ccc(CN2C[C@H](C)N(c3ccc(-c4nc(Nc5cc(C)[nH]n5)c5ccccc5n4)cn3)C[C@H]2C)cn1 [Example 28]
2. COc1ccc(CN2CCN(c3ccc(-c4nc(Nc5cc(C)[nH]n5)c5ccccc5n4)cn3)C[C@H]2C)cn1 [Example 36]
3. Cc1cc(Nc2nc(-c3ccc(N4CC5CC(C4)N5Cc4ccc(OC(C)C)nc4)nc3)nc3ccccc23)n[nH]1 [Example 15]
4. COc1ccc(CN2C3CC2CN(c2ccc(-c4nc(Nc5cc(C)[nH]n5)c5ccccc5n4)cn2)C3)cc1 [Example 14]

[321, 32, 30, 22]

* * *

System: Ba/F3 CCDC6-RET (WT) cells
Assay method text: Cell proliferation inhibition, CellTiter-Glo
Format: cell-based
Condition label: BaF3/CCDC6-RET, 72 hours
Method: Among lung cancer cell lines, which express RET fusion genes, LC-2/ad cells were cultured after adding 10% FBS (HyClone) to RPMI:F12 (1:1) (Invitrogen), and F-12 (Invitrogen) supplemented with 10% FBS was used for TT cells. […] The result value was calculated by the cell growth ratio (%) compared to the control. A graph was drawn using the GraphPad Prism version 5.0 program, and a GI50 (nM) value was calculated. […]
Assign GI50 to each entry below.
Numbers only, in nM.

>  <Compound>
COc1ccc(CN2C3CC2CN(c2ccc(-c4nc(Nc5cc(C)[nH]n5)c5ccccc5n4)cn2)C3)cc1C#N [Example 12]

>  <Output unit>
nM

>  <Measurement>
52

$$$$
>  <Compound>
Cc1cc(Nc2nc(-c3ccc(N4CC5CC(C4)N5Cc4ccc5ncccc5c4)nc3)nc3ccccc23)n[nH]1 [Example 18]

>  <Output unit>
nM

>  <Measurement>
67

$$$$
>  <Compound>
Cc1cc(Nc2nc(-c3ccc(N4CC5CC(C4)N5Cc4ncc(C)s4)nc3)nc3ccccc23)n[nH]1 [Example 5]

>  <Output unit>
nM

>  <Measurement>
41

$$$$

Any idea what GI50 was measured for Cc1cc(Nc2nc(-c3ccc(N4CC5CC(C4)N5Cc4ccc(C#N)nc4)nc3)nc3ccccc23)n[nH]1 [Example 9] ?
62

* * *

Experimental system: CCDC6-RET (Homo sapiens, UniProt P07949)
Construct: the other entry of the earlier key: CCDC6 (Q16204, Coiled-coil domain-containing protein 6)
Sequence (P07949 with tags, fused parts or gaps): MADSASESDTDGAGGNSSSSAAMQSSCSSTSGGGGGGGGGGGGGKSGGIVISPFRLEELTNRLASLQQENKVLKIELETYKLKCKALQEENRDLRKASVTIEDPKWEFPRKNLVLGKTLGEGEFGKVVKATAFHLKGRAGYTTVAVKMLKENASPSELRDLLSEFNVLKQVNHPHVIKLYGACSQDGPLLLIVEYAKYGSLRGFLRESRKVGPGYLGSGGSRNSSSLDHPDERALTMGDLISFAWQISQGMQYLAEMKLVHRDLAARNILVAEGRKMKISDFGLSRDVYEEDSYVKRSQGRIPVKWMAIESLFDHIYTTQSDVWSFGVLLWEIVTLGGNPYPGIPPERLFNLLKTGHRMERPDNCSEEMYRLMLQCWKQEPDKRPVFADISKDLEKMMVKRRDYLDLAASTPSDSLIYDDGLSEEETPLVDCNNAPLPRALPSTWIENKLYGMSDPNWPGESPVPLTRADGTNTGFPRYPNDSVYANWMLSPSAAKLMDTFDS
Assay method text: RET enzyme inhibitory ability, ADP-Glo kinase assay
Format: biochemical
Condition label: ATP 10 μM, 25° C., 1 hour
Quantity kind: IC50 (nM)
Give bare numbers, in nM.

>  <Item smiles>
COc1ccc(CN2C3CC2CN(c2ccc(-c4nc(Nc5cc(C)[nH]n5)c5ccccc5n4)cn2)C3)cn1

>  <IC50 / nM>
0.9

$$$$

Turning now to a further record.
Provide value of IC50 for this record tested with CCDC6-RET (Homo sapiens, UniProt P07949): COc1ccc(CN2C3CC2CN(c2ccc(-c4nc(Nc5cc(C)[nH]n5)c5occc5n4)cn2)C3)cn1
1.8

* * *

Experimental system: RET (WT) (Homo sapiens)
Construct: human RET (658-end, SIGNALCHEM); purchased SIGNALCHEM
Sequence (P07949 658-1114 limits assumed): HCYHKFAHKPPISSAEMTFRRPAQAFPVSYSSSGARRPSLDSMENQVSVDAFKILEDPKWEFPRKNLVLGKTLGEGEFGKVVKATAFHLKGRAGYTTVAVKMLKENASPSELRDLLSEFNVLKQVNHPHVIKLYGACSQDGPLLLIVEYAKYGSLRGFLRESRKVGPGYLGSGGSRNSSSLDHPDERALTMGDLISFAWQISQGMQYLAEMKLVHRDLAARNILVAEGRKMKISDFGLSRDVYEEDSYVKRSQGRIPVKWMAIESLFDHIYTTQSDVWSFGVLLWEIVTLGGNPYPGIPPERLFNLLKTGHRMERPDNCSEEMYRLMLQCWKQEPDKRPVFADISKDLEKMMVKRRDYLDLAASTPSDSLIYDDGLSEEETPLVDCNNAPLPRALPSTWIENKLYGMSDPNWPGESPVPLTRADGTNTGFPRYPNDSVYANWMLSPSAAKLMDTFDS
Assay method text: RET enzyme inhibitory ability, ADP-Glo kinase assay
Type: biochemical
Condition label: ATP 10 μM, 25° C., 1 hour
What IC50 was measured for each of the following?
Give bare numbers, in nM.

Here's what some known entries look like.
>  <Compound>
COc1ccc(CN2CCCN(c3ccc(-c4nc(Nc5cc(C)[nH]n5)c5ccccc5n4)cn3)CC2)cn1 [Example 30]

>  <IC50, nM>
34

$$$$
>  <Compound>
Cc1cnc(CN2C3CC2CN(c2ccc(-c4nc(Nc5cc(C)[nH]n5)c5ccccc5n4)cn2)C3)cn1 [Example 26]

>  <IC50, nM>
7

$$$$
>  <Compound>
Cc1ncc(CN2C3CC2CN(c2ccc(-c4nc(Nc5cc(C)[nH]n5)c5ccccc5n4)cn2)C3)cn1 [Example 25]

>  <IC50, nM>
7

$$$$
>  <Compound>
COc1ccc(CN2C[C@@H]3C[C@H]2CN3c2ccc(-c3nc(Nc4cc(C)[nH]n4)c4ccccc4n3)cn2)cn1 [Example 31]

>  <IC50, nM>
25

$$$$
>  <Compound>
COc1ccc(CN2CCN(c3ccc(-c4nc(Nc5cc(C)[nH]n5)c5ccccc5n4)cn3)CC23CC3)cn1 [Example 37]

>  <IC50, nM>
219

$$$$

State recorded IC50 for all listed compounds.
1. Cc1cc(Nc2nc(-c3ccc(N4CC5CC(C4)N5Cc4ncc(C)s4)nc3)nc3ccccc23)n[nH]1 [Example 5]
2. COc1ncc(CN2C3CC2CN(c2ccc(-c4nc(Nc5cc(C)[nH]n5)c5ccccc5n4)cn2)C3)cc1Cl [Example 16]
3. Cc1cc(Nc2nc(-c3ccc(N4CC5CC(C4)N5Cc4ccc(F)nc4)nc3)nc3ccccc23)n[nH]1 [Example 23]
4. COc1cnc(CN2C3CC2CN(c2ccc(-c4nc(Nc5cc(C)[nH]n5)c5ccccc5n4)cn2)C3)cn1 [Example 17]
5. COc1ccc(CN2C3CC2CN(c2ccc(-c4nc(Nc5cc(C)[nH]n5)c5ccccc5n4)cn2)C3)cc1C#N [Example 12]
6. COc1ccc(CN2C3CC2CN(c2ccc(-c4nc(Nc5cc(C)[nH]n5)c5sccc5n4)cn2)C3)cn1 [Example 2]
7. CCOc1ccc(CN2C3CC2CN(c2ccc(-c4nc(Nc5cc(C)[nH]n5)c5ccccc5n4)cn2)C3)cn1 [Example 24]
8. COc1ccc(CN2C3CC2CN(c2ccc(-c4nc(Nc5cc(C)[nH]n5)c5occc5n4)cn2)C3)cn1 [Example 1]

1. 18
2. 60
3. 15
4. 11
5. 38
6. 12
7. 14
8. 18

Look up IC50 for this compound: COc1ccc(CN2C3CC2CN(c2ccc(-c4nc5c(c(Nc6cc(C)[nH]n6)n4)CCC5)cn2)C3)cn1 [Example 7]
10
